Reference source: paper PMC10786891

- study target: T1, EsCas13d, nuclease-dead (Eubacterium siraeum, UniProt B0MS50, R295A;H300A;R849A;H854A)
- T1 sequence: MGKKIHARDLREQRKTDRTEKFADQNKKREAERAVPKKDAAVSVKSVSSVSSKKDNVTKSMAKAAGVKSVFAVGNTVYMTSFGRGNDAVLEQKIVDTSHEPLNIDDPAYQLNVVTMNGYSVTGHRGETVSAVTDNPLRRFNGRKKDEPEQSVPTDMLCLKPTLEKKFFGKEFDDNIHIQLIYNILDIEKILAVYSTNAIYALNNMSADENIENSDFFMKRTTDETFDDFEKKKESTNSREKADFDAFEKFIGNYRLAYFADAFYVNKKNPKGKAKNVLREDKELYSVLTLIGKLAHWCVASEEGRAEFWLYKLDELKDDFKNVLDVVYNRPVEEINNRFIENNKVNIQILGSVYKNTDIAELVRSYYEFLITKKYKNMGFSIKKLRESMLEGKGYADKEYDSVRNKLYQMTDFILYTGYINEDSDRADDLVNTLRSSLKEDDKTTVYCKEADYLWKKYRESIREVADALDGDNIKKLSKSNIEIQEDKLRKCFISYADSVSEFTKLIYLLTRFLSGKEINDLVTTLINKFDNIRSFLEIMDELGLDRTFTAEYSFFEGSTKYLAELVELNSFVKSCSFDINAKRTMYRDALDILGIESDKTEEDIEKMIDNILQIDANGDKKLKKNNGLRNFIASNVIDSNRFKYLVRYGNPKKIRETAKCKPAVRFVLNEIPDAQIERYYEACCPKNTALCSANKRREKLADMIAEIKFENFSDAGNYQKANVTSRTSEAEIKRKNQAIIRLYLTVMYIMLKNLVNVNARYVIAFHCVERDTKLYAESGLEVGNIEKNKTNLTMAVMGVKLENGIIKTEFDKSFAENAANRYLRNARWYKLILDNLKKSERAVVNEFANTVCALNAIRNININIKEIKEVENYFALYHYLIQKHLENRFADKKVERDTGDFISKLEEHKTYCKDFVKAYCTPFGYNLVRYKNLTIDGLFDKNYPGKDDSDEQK
- protocol description: crRNA (strand 1, pre-loaded); Mg2+; 40 mM Tris-HCl pH 7.5, 150 mM NaCl, 6 mM MgCl2, 1 mM DTT, 0.1% Tween-20, 0.2 mg/ml BSA; 25 C; 10 min per concentration, then washed
- condition label: tags: His6-TwinStrep-SUMO cleaved; N-terminal SNAP kept (SNAP-Surface 488); label: 3' end held by stalled T7 RNA polymerase
outcome measure: log10(Kd) (log10 of the value in nM)
Response schema: value (number) is log10 of Kd in units of nM.

The following binders have reported results that may help.
binder	log10(Kd)
target 1 insA 3' of 19,insG 3' of 9 (mixed) RNA 1: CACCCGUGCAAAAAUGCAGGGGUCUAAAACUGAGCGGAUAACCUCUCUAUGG RNA 2: GGGAAUGGAUCCACAUCUACGAAUUCGUACCAUAAGAGAGGUUAGUCCGCUCACCGAGAUCGGAAGAGCACACGU	1.57
target 2 MT 5'PFS AAU 3'PFS CAU (mixed) RNA 1: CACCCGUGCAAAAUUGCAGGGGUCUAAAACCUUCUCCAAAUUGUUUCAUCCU RNA 2: GGGAAUGGAUCCACAUCUACGAAUUCAAUAGGAUGAAACAAUUUGGAGAAGCAUAGAUCGGAAGAGCACACGU	0.48
target 1 insC 3' of 14,insC 3' of 1 (mixed) RNA 1: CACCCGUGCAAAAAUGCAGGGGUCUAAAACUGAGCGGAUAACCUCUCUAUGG RNA 2: GGGAAUGGAUCCACAUCUACGAAUUCGUACCAUAGAGACGGUUAUCCGCUCACCCGAGAUCGGAAGAGCACACGU	1.70

Take each entry in turn and give its log10(Kd).
1. target 3 A5U,U8G (mixed) RNA 1: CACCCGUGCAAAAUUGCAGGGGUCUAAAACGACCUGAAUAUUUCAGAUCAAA RNA 2: GGGAAUGGAUCCACAUCUACGAAUUCGUUUUUGAUCUGAAAUAGUCUGGUCUGCAGAUCGGAAGAGCACACGU
2. target 2 MT 5'PFS GGC 3'PFS AAA (mixed) RNA 1: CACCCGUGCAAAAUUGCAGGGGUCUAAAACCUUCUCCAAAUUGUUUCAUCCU RNA 2: GGGAAUGGAUCCACAUCUACGAAUUCGGCAGGAUGAAACAAUUUGGAGAAGAAAAGAUCGGAAGAGCACACGU

Result:
1.97
0.95

Q: Which log10(Kd) value is on record for target 1 insU 3' of 15,insA 3' of 5 (mixed) RNA 1: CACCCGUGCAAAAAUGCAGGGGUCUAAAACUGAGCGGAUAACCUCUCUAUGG RNA 2: GGGAAUGGAUCCACAUCUACGAAUUCGUACCAUAGAGUAGGUUAUCCGACUCACCGAGAUCGGAAGAGCACACGU ?
Result: 1.34
